assay protocol: protein stability index of a GFP-peptide fusion (yeast GPS) (PSI 1-4); higher = more stable; sorted into four equal gates, so the index is relative within each strain
conditions used: doa10∆
observable: protein stability index
Numbers only.

DTLDGDLMDDMSDISDL [RPN3] | 2.71
ESGKVFIGRLPIMLRSK [RPB2] | 2.83

Below are some sequences; for each one, tell me its protein stability index.
1. DSSMTTVQENELLKSSL [AAR2]
2. FLIDVLKIYAQIEKKEI [YCG1]
3. AGDIQLQYGWKVERHIM [RPO21]
4. KADAQREKALNEEAEAR [RPL19A]

Response:
1. 2.79
2. 1.26
3. 1.18
4. 3.22

Below are some sequences; for each one, tell me its protein stability index.
1. NEISRNGTMINEVIDKL [PCI8]
2. RKAYFTAPSSERRVLLS [RPL26B]
3. LLDAYSHIESDSTSHNN [MED1]
4. AKLRKELVETSEVRKAV [FAS2]
5. LAALNVWYGLSDGEDGH [SSN2]
6. NHNQFECKGCDNKIDIY [RPB2]
7. EYKVITSLQGTYEAIEI [YMR129W/POM152]

Response:
[2.59, 1.45, 2.73, 2.7, 3.19, 3.06, 3.34]

Below are some sequences; for each one, tell me its protein stability index.
1. NFNSVNDANITSNKEGF [SSN2]
2. QEESFSLNLGIGIVEIA [SRB8]
3. YQTKKFYDYIKERSIVV [REC8]
4. EDFAPLLAEEEELILPN [PRP8]
5. GIKATNGVVIATEKKSS [PRE8]

Response:
3
1.33
2.49
3.14
2.91

* * *

assay protocol: protein stability index of a GFP-peptide fusion (yeast GPS) (PSI 1-4); higher = more stable; sorted into four equal gates, so the index is relative within each strain
conditions used: doa10∆
observable: protein stability index
Answers are plain numbers.

Illustrative cases are given below, each with its answer.
ISKSLTFSQESGLMVIL [RRI2] | 2.23
SYHNGNLKGRPYTGWVD [FAS2] | 2.07
YWKLWIDEPFNLDFDPR [FAS1] | 3.52
QYVTQIEQEKQEQQEQD [PRE6] | 2.23
PVLFNRQPSLHKMSMMA [RPO21] | 2.54
FNEKFPSLIQEEEEDTT [NUT1] | 2.78

Below are some sequences; for each one, tell me its protein stability index.
1. REGSSARTIKATLPYIK [RPB2]
2. FDFLMNMPNCDYLTLNK [RPN2]
3. IVPSMTHLEIEPFTILG [RET1]

Response:
2.42
2.76
1.49

Request: Can you look up the measured protein stability index of NIKTIAETLAEELINAA [RPS5] for me?
Response: 2.29

* * *

Please go through the items and note down their protein stability index.
assay protocol: protein stability index of a GFP-peptide fusion (yeast GPS) (PSI 1-4); higher = more stable; sorted into four equal gates, so the index is relative within each strain
conditions used: ubr1∆
Answers are plain numbers.

Illustrative cases are given below, each with its answer.
YWYFLQKLHKVKKASGE [RPL20A] | 2.97
GGSFGNREEFINKLVKS [RPL7A] | 2.93
MLMSKIGDVDGLIVNPV [POP5] | 2.42

Below are some sequences; for each one, tell me its protein stability index.
1. QRDFRKHGAVHLSTYLK [RPL21A]
2. LFPEQQNKEIKAERVED [RPL6A]

Response:
[2.71, 3.35]

Reference for the values: the supplement of paper PMC9732359
